test system: NCI/ADR-RES ovarian; assay: NCI-60 one-dose screen, 48 h (100 = growth as untreated, 0 = no growth, -100 = all killed); settings: 10 µM
This is part of a sample that, as a whole, favours compounds with a hit. Of some 83,000 tested, about 20% had one in any assay.
Measurement Kind: growth (%)

>  <Compound>
COC(C(=O)C(O)C(C)O)C1Cc2cc3cc(OC4CC(OC(C)=O)C(OC5CC(O)C(OC)C(C)O5)C(C)O4)cc(O)c3c(O)c2C(=O)C1OC1CC(OC2CC(OC3CC(C)(O)C(OC(=O)C(C)C)C(C)O3)C(O)C(C)O2)C(O)C(C)O1 (configuration not stated)

>  <Numeric Value>
47.4

$$$$
>  <Compound>
COc1cc(/C=C/[N+](=O)[O-])cc(Br)c1OC

>  <Numeric Value>
60.2

$$$$
>  <Compound>
O=C(O)c1cc(Cc2ccc(O)c(C(=O)O)c2)ccc1O (tested in a mixture with another compound)

>  <Numeric Value>
75.7

$$$$
>  <Compound>
CC[C@@H](C)[C@@H]1NC(=O)C(NC(=O)C(CC(C)C)N(C)C(=O)C2CCCN2C(=O)C(C)O)C(C)OC(=O)C(Cc2ccc(OC)cc2)N(C)C(=O)C2CCCN2C(=O)C(CC(C)C)NC(=O)C(C)C(=O)C(C(C)C)OC(=O)C[C@H]1O (some centres not stated)

>  <Numeric Value>
-43.2

$$$$
>  <Compound>
O=[N+]([O-])c1ccc(N2CCOCC2)c2c1no[n+]2[O-]

>  <Numeric Value>
16.3

$$$$
>  <Compound>
O=[N+]([O-])c1cc[n+]([O-])c2ccccc12

>  <Numeric Value>
-55.1

$$$$
>  <Compound>
COC(=O)C1C(O)C(C)C(O)C(C)/C=C\C=C(C)C(=O)Nc2c(C)c(OC(C)=O)c3c(c2O)C(=O)C(C)=C2OCOC(=C23)C(C)=CC(C)(O)C(O)C(C)C1O (configuration not stated)

>  <Numeric Value>
105

$$$$

###

tested on: HCT-15 colon; test: NCI-60 one-dose screen, 48 h (100 = growth as untreated, 0 = no growth, -100 = all killed); conditions: 10 µM
About 83,000 compounds went through this panel and 20% of them were active in at least one assay; those are over-represented in the sample as a whole.
Use 30% as the dividing line for growth, with the line itself on the Fulfilled side and lower values as Not fulfilled.

>  <Molecule>
Oc1c(I)cc(I)cc1I

>  <Target Entity>
HCT-15 colon

>  <Qualitative Label>
Fulfilled

$$$$
>  <Molecule>
[O-][n+]1ccccc1S

>  <Target Entity>
HCT-15 colon

>  <Qualitative Label>
Fulfilled

$$$$
>  <Molecule>
CC(C)(C)OOC(=O)/C=C\C(=O)OOC(C)(C)C

>  <Target Entity>
HCT-15 colon

>  <Qualitative Label>
Fulfilled

$$$$
>  <Molecule>
COc1ccccc1[As]=[As]c1ccccc1OC (centres undefined)

>  <Target Entity>
HCT-15 colon

>  <Qualitative Label>
Not fulfilled

$$$$
>  <Molecule>
COC(=O)C1C(O)C(C)C(O)C(C)/C=C\C=C(C)C(=O)Nc2c(C)c(OC(C)=O)c3c(c2O)C(=O)C(C)=C2OCOC(=C23)C(C)=CC(C)(O)C(O)C(C)C1O (centres undefined)

>  <Target Entity>
HCT-15 colon

>  <Qualitative Label>
Fulfilled

$$$$
>  <Molecule>
CS(=N)(=O)CCC(N)C(=O)O (centres undefined)

>  <Target Entity>
HCT-15 colon

>  <Qualitative Label>
Fulfilled

$$$$
>  <Molecule>
O=C(CBr)Nc1ccc(Cl)cc1

>  <Target Entity>
HCT-15 colon

>  <Qualitative Label>
Not fulfilled

$$$$
>  <Molecule>
CCOP(=O)(OCC)/C(C#N)=C/c1ccc(Br)cc1

>  <Target Entity>
HCT-15 colon

>  <Qualitative Label>
Fulfilled

$$$$
>  <Molecule>
[Cl][Sn]([c]1ccccc1)([c]1ccccc1)[c]1ccccc1

>  <Target Entity>
HCT-15 colon

>  <Qualitative Label>
Not fulfilled

$$$$
>  <Molecule>
CC(C)C1(NC(=O)C2CC3c4cccc5[nH]cc(c45)CC3N(C)C2)OC2(O)C3CCCN3C(=O)C(Cc3ccccc3)N2C1=O (centres undefined)

>  <Target Entity>
HCT-15 colon

>  <Qualitative Label>
Fulfilled

$$$$
>  <Molecule>
O=C1C(=O)c2ccccc2-c2ccccc21

>  <Target Entity>
HCT-15 colon

>  <Qualitative Label>
Not fulfilled

$$$$
>  <Molecule>
Cc1cc(C)c(C[N+](C)(C)C)c(C)c1C

>  <Target Entity>
HCT-15 colon

>  <Qualitative Label>
Not fulfilled

$$$$
>  <Molecule>
N#CCc1ccccc1

>  <Target Entity>
HCT-15 colon

>  <Qualitative Label>
Fulfilled

$$$$
>  <Molecule>
O=[N+]([O-])/C=C/c1ccc(Cl)cc1[N+](=O)[O-]

>  <Target Entity>
HCT-15 colon

>  <Qualitative Label>
Not fulfilled

$$$$
>  <Molecule>
COc1ccc2c(ccc3oc([N+](=O)[O-])cc32)c1

>  <Target Entity>
HCT-15 colon

>  <Qualitative Label>
Not fulfilled

$$$$
>  <Molecule>
O=S(=O)(F)c1ccc(Cl)cc1

>  <Target Entity>
HCT-15 colon

>  <Qualitative Label>
Fulfilled

$$$$
>  <Molecule>
C/C1=C\[C@H](C)C[C@H](C)OC(=O)C[C@H](c2ccc(O)cc2)NC(=O)[C@@H](Cc2c(Br)[nH]c3ccccc23)N(C)C(=O)[C@H](C)NC(=O)[C@@H](C)C1

>  <Target Entity>
HCT-15 colon

>  <Qualitative Label>
Not fulfilled

$$$$
>  <Molecule>
NNc1ccccc1

>  <Target Entity>
HCT-15 colon

>  <Qualitative Label>
Fulfilled

$$$$
>  <Molecule>
COc1cc2c(c(OC)c1OC)-c1ccc(O)c(=O)cc1[C@@H](NC(C)=O)CC2

>  <Target Entity>
HCT-15 colon

>  <Qualitative Label>
Fulfilled

$$$$
>  <Molecule>
Cc1cc(C(C)(C)c2ccc(O)c(C)c2)ccc1O

>  <Target Entity>
HCT-15 colon

>  <Qualitative Label>
Fulfilled

$$$$
>  <Molecule>
CC(=O)Nc1c2sscc-2n(C)c1=O

>  <Target Entity>
HCT-15 colon

>  <Qualitative Label>
Not fulfilled

$$$$
>  <Molecule>
O=C(O)c1cc(Cc2ccc(O)c(C(=O)O)c2)ccc1O (tested in a mixture with another compound)

>  <Target Entity>
HCT-15 colon

>  <Qualitative Label>
Fulfilled

$$$$
>  <Molecule>
CN(CCCl)c1ccc(/C=C/C2=[N+](C)c3ccccc3C2(C)C)cc1

>  <Target Entity>
HCT-15 colon

>  <Qualitative Label>
Fulfilled

$$$$
>  <Molecule>
ClCc1ccc2ccccc2n1

>  <Target Entity>
HCT-15 colon

>  <Qualitative Label>
Fulfilled

$$$$
